Molecular target: full length human TREX1 (Homo sapiens, UniProt Q9NSU2)
Construct: N-terminally His-Tev tagged full length human TREX1; His-Tev (His tag with TEV protease site) (N)
Sequence (Q9NSU2 whole entry): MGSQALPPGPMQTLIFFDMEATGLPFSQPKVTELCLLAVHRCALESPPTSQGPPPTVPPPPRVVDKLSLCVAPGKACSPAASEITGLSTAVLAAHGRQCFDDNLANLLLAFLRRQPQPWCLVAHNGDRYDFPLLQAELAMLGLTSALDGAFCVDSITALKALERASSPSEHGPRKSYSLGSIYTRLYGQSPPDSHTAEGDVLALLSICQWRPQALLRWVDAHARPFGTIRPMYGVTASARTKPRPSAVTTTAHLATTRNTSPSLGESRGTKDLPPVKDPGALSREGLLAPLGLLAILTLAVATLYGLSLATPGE
Test: TREX1 Biochemical Assay (fluorescence assay, degradation of dsDNA substrate)
Settings: 150 pM TREX1, 60 nM dsDNA substrate, 25 minutes at room temperature; read-out: hTREX1 EC50
pEC50: −log10 of the molar value.
Recorded pEC50 values for a group of molecules are listed next.
quantity-name: pEC50

>>> print(df.to_string())
                                   molecule        result
0  O=C(c1ccc(CO)cc1F)N(Cc1cccnc1)Cc1ccc(Cl)cc1Cl [Compound 84]        < 5.00
1  COc1cc(Br)cc(C(=O)N(Cc2cccnc2)Cc2cc(Cl)cc(Cl)c2)c1 [Compound 52]        < 5.00
2  N#CCC[C@@H](c1ccccc1Cl)N(Cc1cccnc1)C(=O)c1cc(F)cc(F)c1 [Compound 177]  6.00 to 7.00
3  O=C(c1ccc(Oc2ccccc2)cc1)N(Cc1cccnc1)Cc1cc(Cl)cc(Cl)c1 [Compound 71]        < 5.00
4  COc1nccc(CN(Cc2ccc(C(=O)O)nc2)C(=O)c2cc(F)cc(F)c2)c1Cl [Compound 188]        > 7.00
5  O=C(c1ccc(CO)cc1)N(Cc1cccnc1)Cc1ccc(Cl)cc1Cl [Compound 83]        < 5.00
6  O=C(C1CCOCC1)N(Cc1cccnc1)Cc1ccc(Cl)cc1Cl [Compound 89]        < 5.00
7  Cc1cc(C(=O)O)ncc1CN(Cc1cccc(Cl)c1Cl)C(=O)c1cc(F)cc(F)c1 [Compound 205]        > 7.00

FYI, the data here is from patent US20230233541A1.
